# Tested on: A204
# Protocol Details: relative viability vs DMSO control (72 h) (fraction); higher = more viable cells
# Condition Label: 0.3704 µM
This section presents compounds with their documented relative viability values.

Compound | relative viability
Cc1cc2c(F)c(Oc3ncnn4cc(OC[C@@H](C)O)c(C)c34)ccc2[nH]1 [Brivanib] | 1.01
CN1CCN(c2ccc(C(=O)Nc3n[nH]c4ccc(Cc5cc(F)cc(F)c5)cc34)c(NC3CCOCC3)c2)CC1 [Entrectinib] | 1.05
CCN(CC)CCNC(=O)c1c(C)[nH]c(/C=C2\C(=O)Nc3ccc(F)cc32)c1C [Sunitinib] | 0.363
COc1cc(OC)c(/C=C/S(=O)(=O)Cc2ccc(OC)c(NCC(=O)O)c2)c(OC)c1 [Rigosertib] | 0.672
CCN1C(=O)N(c2c(F)c(OC)cc(OC)c2F)Cc2cnc3[nH]c(CN4CCOCC4)cc3c21 [Pemigatinib] | 0.565
Cc1cccc(-c2nn3c(c2-c2ccnc4ccc(C(N)=O)cc24)CCC3)n1 [Galunisertib] | 1.02
O=S(=O)(c1cccc2cnccc12)N1CCCNCC1 [Fasudil] | 1.01

====

This section presents compounds with their documented relative viability values.
# Test system: SK-ES-1
# Protocol Details: relative viability vs DMSO control (72 h) (fraction); higher = more viable cells
# Condition Label: 0.1235 µM

Compound | relative viability
N#CCNC(=O)c1ccc(-c2ccnc(Nc3ccc(N4CCOCC4)cc3)n2)cc1 [Momelotinib] | 0.914
C[C@H](Nc1ncnc2nc[nH]c12)c1cc2cccc(Cl)c2c(=O)n1-c1ccccc1 [Duvelisib] | 0.99
Cc1ccc(Nc2nccc(N(C)c3ccc4c(C)n(C)nc4c3)n2)cc1S(N)(=O)=O [Pazopanib] | 1.02
CCN(CC)CCNC(=O)c1c(C)[nH]c(/C=C2\C(=O)Nc3ccc(F)cc32)c1C [Sunitinib] | 0.931
CN1CCN(c2ccc(C(=O)Nc3n[nH]c4ccc(Cc5cc(F)cc(F)c5)cc34)c(NC3CCOCC3)c2)CC1 [Entrectinib] | 1.05
N#CC1(c2ccc(NC(=O)c3cccnc3NCc3ccncc3)cc2)CCCC1 [Apatinib] | 0.999
COC(=O)[C@@]1(O)C[C@H]2O[C@]1(C)n1c3ccccc3c3c4c(c5c6ccccc6n2c5c31)C(=O)NC4 [K-252a] | 0.398
CCN1C(=O)N(c2c(F)c(OC)cc(OC)c2F)Cc2cnc3[nH]c(CN4CCOCC4)cc3c21 [Pemigatinib] | 0.89
CC1(C)CC=C(c2nc(C3CC(C)(C)OC(C)(C)C3)ccc2NC(=O)c2nc(C#N)c[nH]2)CC1 [Edicotinib] | 1.04

====

# System: SW872
# Protocol Details: standardised AUC of viability dose-response curve (72 h) (fraction (0-1)); higher = less growth inhibition (more resistant)
Tick Y if standardised AUC is 0.9 or greater. Tick N if standardised AUC is less than 0.9.

Compound | Discrete Label
C[C@H](Nc1ncnc2nc[nH]c12)c1cc2cccc(Cl)c2c(=O)n1-c1ccccc1 | N
CC(C)NC[C@@H](C(=O)N1CCN(c2ncnc3c2[C@H](C)C[C@H]3O)CC1)c1ccc(Cl)cc1 | N
Cc1ccc(Nc2nccc(N(C)c3ccc4c(C)n(C)nc4c3)n2)cc1S(N)(=O)=O | Y
CCc1cnn2c(NCc3ccc[n+]([O-])c3)cc(N3CCCC[C@H]3CCO)nc12 | N
CO[C@H]1C[C@@H]2CC[C@@H](C)[C@@](O)(O2)C(=O)C(=O)N2CCCC[C@H]2C(=O)O[C@H]([C@H](C)C[C@@H]2CC[C@@H](OCCO)[C@H](OC)C2)CC(=O)[C@H](C)/C=C(\C)[C@@H](O)[C@@H](OC)C(=O)[C@H](C)C[C@H](C)/C=C/C=C/C=C/1C | N
COc1cc(CCc2cc(NC(=O)c3ccc(N4CC(C)NC(C)C4)cc3)n[nH]2)cc(OC)c1 (stereo unspecified) | Y
